meta.source: the supplement of paper PMC12764529

- PROTOCOL SUMMARY: folding stability dG unfold from trypsin proteolysis; higher = more stable
Binary classification by folding stability dG unfold, with 10 kJ/mol as an inclusive lower bound for yes; all other cases are no.

*Q* # check: folding stability dG unfold of SAGPPWEPVPITPEIIDKLADKLNPGFPISLQVYRHPDGRVKISIRNEGSGKEYTLVVDPDGDIEIEPSAGG [r19_70_TrROS] is greater than or equal to 10 kJ/mol
*A* yes

*Q* Quick check, folding stability dG unfold >= 10 kJ/mol? SAGGSAPPPKWIMFKIEATMPPNDLDNVVEELLKILFGFKIKNIEVEWEQVKDGYYKVPVWVMIRFSAGGSA [r15_138_TrROS]
*A* yes

*Q* I'd appreciate it if you could say whether SAGGSAGGSAGGWAFMWVIEIEMPPEQMPPEDMKKFPNMRIEIEPYWVPIKIDPENGELRSAGGSAGGSAGG [r17_310_TrROS] has folding stability dG unfold at least equal to 10 kJ/mol.
*A* no

*Q* Is reported folding stability dG unfold greater than or equal to 10 kJ/mol here: SMEEIAKEIAEKAGVNWENVEFKVEEKEDPETGEKYLIAHVVIKLPNEKYIAVIDLRDKKILEIWKLEDISA [r9_1219_TrMRF]
*A* yes

*Q* Please indicate if the recorded folding stability dG unfold for SAGGSAKKPKPVKYNVVITLKDGKTITLTLPFGSLEKAKEFIEKNFPDAIVTYNPKTGNVTVYLPVSAGGSA [r15_313_TrMRF] meets or exceeds 10 kJ/mol.
*A* no

*Q* Quick check: does MPARVEARRIPDEPRLEVVVDFPGYRVVVRVDEGGRVEVEVVWEENVGPEERAAAEEAAEAFAREVAEALGS [r1_468_TrMRF] have folding stability dG unfold greater than or equal to 10 kJ/mol?
*A* no

*Q* Dear colleague, could you confirm whether SAGGSEIKIEIKYDEETGELVVEITVPESEEEVKKLVEELKKLGVEKVEIVRDKKTKEYRIRVVFKSAGGSA [r2_358_TrROS_Hall] has folding stability dG unfold at or above 10 kJ/mol?
*A* yes

---

What folding stability dG unfold was measured for each of the following?
- PROTOCOL SUMMARY: folding stability dG unfold (combined trypsin and chymotrypsin); higher = more stable
API: value field is a number in kcal/mol; no unit string.

*Q* // query folding stability dG unfold value for entry SAGGSAVVVTTDPNGTLTVYADNKVVKVKVIPLPRPDPLTGSTSTLLLVEVEVSPLKPDPLPPEFPSAGGSA [r15_515_TrMRF]
*A* 2.44

*Q* Quick one: folding stability dG unfold of SAMMKAEIVEIKFDPKTKKLTIKFPDGSKLEIKPGETIKIKIKVTVFNEETGKLEEKEITLTLKLPEGLSAG [r14_366_TrROS_Hall] ?
*A* 2.91

*Q* Any idea what its folding stability dG unfold is? The sequence is SAGEVKIEISVEKVGGKYIVRIKVTVDGKEYEYEFPAGKSVEELAKELEKKLNLKVKKIEVEVRKLPPKSAG [r5_181_TrROS_Hall]
*A* 3.28

*Q* Tell me the measured folding stability dG unfold of SAGGSAGGSMSEELLAEGPVRIRVRVRNKDGSVEEIEVEAGEEIELPEELKNQDVEIVSIEPVSAGGSAGGS [r12_161_TrROS_Hall] , please.
*A* 1.74

*Q* Entry SAGGMTEVSVSEELRAEGGGLERVLVVTITTVTKVYPVGSSNKVEYEESTIVIPADDPAALEAAGVLLSAGG [r13_670_JUSTAS] has what folding stability dG unfold?
*A* 0.257

*Q* So what does the record say about folding stability dG unfold for SAGGSAVERLRELLKELGVEVTVERKDGKVYIRVEASPEKREKLAEALRELFGKDIEIEVLEEGEEPSAGGS [r16_514_TrROS_Hall] ?
*A* 3.49
